Measured MIC of individual entries
- Tested on: Streptococcus pneumoniae
- PROTOCOL NOTES: Antimicrobial activity against Streptococcus pneumoniae 7 expressing inducible ermB after 20 hrs by agar dilution method
- Assay type: functional
Provide the reading as a plain figure in µg/mL.

Measured MIC of CCOC(=O)[C@H]1[C@H](C)O[C@@H](O[C@H]2[C@H](N(C)C)[C@@H](O)[C@H](O[C@H]3[C@@H](CC=O)C[C@@H](C)[C@@H](O)CN(C)CC(/C=C/Cc4cnc5ccccc5c4)CCOC(=O)C[C@@H](OC(=O)CC)[C@@H]3OC)O[C@@H]2C)C[C@@]1(C)O (stereo in doubt; form 2) : 128

Measured MIC of CCOC(=O)[C@H]1[C@H](C)O[C@@H](O[C@H]2[C@H](N(C)C)[C@@H](O)[C@H](O[C@H]3[C@@H](CC=O)C[C@@H](C)[C@@H](O)CN(C)CCC(/C=C/Cc4ccnc5ccccc45)NC(=O)C[C@@H](OC(=O)CC)[C@@H]3OC)O[C@@H]2C)C[C@@]1(C)O (mixture of isomers) : 8

Measured MIC of CCOC(=O)[C@H]1[C@H](C)O[C@@H](O[C@H]2[C@H](N(C)C)[C@@H](O)[C@H](O[C@H]3[C@@H](CC=O)C[C@@H](C)[C@@H](O)CN(CCCCc4ccccc4)CCC(C)NC(=O)C[C@@H](OC(=O)CC)[C@@H]3OC)O[C@@H]2C)C[C@@]1(C)OC(C)=O (stereo in doubt; form 2) : 32

Measured MIC of CCOC(=O)[C@H]1[C@H](C)O[C@@H](O[C@H]2[C@H](N(C)C)[C@@H](O)[C@H](O[C@H]3[C@@H](CC=O)C[C@@H](C)[C@@H](O)CN(C)CC(CCCc4ccnc5ccccc45)CCOC(=O)C[C@@H](OC(=O)CC)[C@@H]3OC)O[C@@H]2C)C[C@@]1(C)O (stereo in doubt; form 2) : 16

Measured MIC of CCOC(=O)[C@H]1[C@H](C)O[C@@H](O[C@H]2[C@H](N(C)C)[C@@H](O)[C@H](O[C@H]3[C@@H](CC=O)C[C@@H](C)[C@@H](O)CN(CCCCc4ccccc4)CCC(C)NC(=O)C[C@@H](OC(=O)CC)[C@@H]3OC)O[C@@H]2C)C[C@@]1(C)OC(C)=O (stereo in doubt; form 1) : 128

###

- Tested on: Streptococcus pneumoniae
- PROTOCOL NOTES: Antimicrobial activity against Streptococcus pneumoniae 6 constitutively expressing ermB after 20 hrs by agar dilution method
- Format: functional
- CONDITION DESCRIPTION: Streptococcus pneumoniae, 20 h; read-out: MIC
Measured MIC of individual entries

Entry CCOC(=O)[C@H]1[C@H](C)O[C@@H](O[C@H]2[C@H](N(C)C)[C@@H](O)[C@H](O[C@H]3[C@@H](CC=O)C[C@@H](C)[C@@H](O)CN(C)CCC(CCCc4cnc5ccccc5c4)NC(=O)C[C@@H](OC(=O)CC)[C@@H]3OC)O[C@@H]2C)C[C@@]1(C)O (mixture of isomers) under Streptococcus pneumoniae had MIC of > 128 µg/mL

Entry "CCOC(=O)[C@H]1[C@H](C)O[C@@H](O[C@H]2[C@H](N(C)C)[C@@H](O)[C@H](O[C@H]3[C@@H](CC=O)C[C@@H](C)[C@@H](O)CN(CCCCc4ccccc4)CCCNC(=O)C[C@@H](OC(=O)CC)[C@@H]3OC)O[C@@H]2C)C[C@@]1(C)OC(C)=O" under Streptococcus pneumoniae had MIC of > 128 µg/mL

###

- System: Haemophilus influenzae
- PROTOCOL NOTES: Antimicrobial activity against drug-susceptible Haemophilus influenzae 2 after 20 hrs by agar dilution method
- Assay type: functional
- CONDITION DESCRIPTION: Haemophilus influenzae, 20 h; read-out: MIC
METRIC: MIC (µg/mL)

COMPOUND STRUCTURE	METRIC	VALUE UNITS	MEASURED
CCOC(=O)[C@H]1[C@H](C)O[C@@H](O[C@H]2[C@H](N(C)C)[C@@H](O)[C@H](O[C@H]3[C@@H](CC=O)C[C@@H](C)[C@@H](OC(C)=O)CN(CCCCc4ccccc4)C[C@@H](C)NC(=O)C[C@@H](OC(=O)CC)[C@@H]3OC)O[C@@H]2C)C[C@@]1(C)OC(C)=O	MIC	µg/mL	4
CCOC(=O)[C@H]1[C@H](C)O[C@@H](O[C@H]2[C@H](N(C)C)[C@@H](O)[C@H](O[C@H]3[C@@H](CC=O)C[C@@H](C)[C@@H](OC(C)=O)CN(CCCCc4ccccc4)CCN(C)C(=O)C[C@@H](OC(=O)CC)[C@@H]3OC)O[C@@H]2C)C[C@@]1(C)OC(C)=O	MIC	µg/mL	4

[I] CCOC(=O)[C@H]1[C@H](C)O[C@@H](O[C@H]2[C@H](N(C)C)[C@@H](O)[C@H](O[C@H]3[C@@H](CC=O)C[C@@H](C)[C@@H](OC(C)=O)CN(CCCCc4ccccc4)CCCOC(=O)C[C@@H](OC(=O)CC)[C@@H]3OC)O[C@@H]2C)C[C@@]1(C)OC(C)=O
[II] CCOC(=O)[C@H]1[C@H](C)O[C@@H](O[C@H]2[C@H](N(C)C)[C@@H](O)[C@H](O[C@H]3[C@@H](CC=O)C[C@@H](C)[C@@H](O)CN(C)CCC[C@H](C/C=C/c4ccc5ncccc5c4)OC(=O)C[C@@H](OC(=O)CC)[C@@H]3OC)O[C@@H]2C)C[C@@]1(C)O
Query: So which one has the bigger MIC here, I or II ? Give the chosen item's label as your response.
Response: II

###

Measured MIC of individual entries
- Tested on: Streptococcus pneumoniae
- PROTOCOL NOTES: Antimicrobial activity against Streptococcus pneumoniae 9 expressing mefA after 20 hrs by agar dilution method
- Assay type: functional
Provide the reading as a plain figure in µg/mL.

COMPOUND	VALUE UNITS	MIC
CCOC(=O)[C@H]1[C@H](C)O[C@@H](O[C@H]2[C@H](N(C)C)[C@@H](O)[C@H](O[C@H]3[C@@H](CC=O)C[C@@H](C)[C@@H](O)CN(C)CC(/C=C\Cc4ccnc5ccccc45)CCOC(=O)C[C@@H](OC(=O)CC)[C@@H]3OC)O[C@@H]2C)C[C@@]1(C)O (stereo in doubt; form 1)	µg/mL	0.06

Kindly consider the entry below.
Measured MIC of CCOC(=O)[C@H]1[C@H](C)O[C@@H](O[C@H]2[C@H](N(C)C)[C@@H](O)[C@H](O[C@H]3[C@@H](CC=O)C[C@@H](C)[C@@H](O)CN(C)CC(CCCc4ccnc5ccccc45)CCOC(=O)C[C@@H](OC(=O)CC)[C@@H]3OC)O[C@@H]2C)C[C@@]1(C)O (stereo in doubt; form 2) : 0.06

###

- Test system: Streptococcus pyogenes
- PROTOCOL NOTES: Antimicrobial activity against drug-susceptible Streptococcus pyogenes 1 after 20 hrs by agar dilution method
- Format: functional
METRIC: MIC (µg/mL)
Provide the reading as a plain figure in µg/mL.

Use these answered entries as a reference point.
COMPOUND	TESTED TARGET	VALUE UNITS	MIC
CCOC(=O)[C@H]1[C@H](C)O[C@@H](O[C@H]2[C@H](N(C)C)[C@@H](O)[C@H](O[C@H]3[C@@H](CC=O)C[C@@H](C)[C@@H](O)CN(C)CCC(C/C=C/c4cnc5ccccc5c4)NC(=O)C[C@@H](OC(=O)CC)[C@@H]3OC)O[C@@H]2C)C[C@@]1(C)O (stereo in doubt; form 2)	Streptococcus pyogenes	µg/mL	0.5
CCOC(=O)[C@H]1[C@H](C)O[C@@H](O[C@H]2[C@H](N(C)C)[C@@H](O)[C@H](O[C@H]3[C@@H](CC=O)C[C@@H](C)[C@@H](O)CN(C)CC(CCCc4ccnc5ccccc45)CCOC(=O)C[C@@H](OC(=O)CC)[C@@H]3OC)O[C@@H]2C)C[C@@]1(C)O (stereo in doubt; form 2)	Streptococcus pyogenes	µg/mL	0.06

Kindly consider the entry below.
Measured MIC of CCOC(=O)[C@H]1[C@H](C)O[C@@H](O[C@H]2[C@H](N(C)C)[C@@H](O)[C@H](O[C@H]3[C@@H](CC=O)C[C@@H](C)[C@@H](O)CN(C)CC(/C=C/Cc4cnc5ccccc5c4)CCOC(=O)C[C@@H](OC(=O)CC)[C@@H]3OC)O[C@@H]2C)C[C@@]1(C)O (stereo in doubt; form 1) : 0.03

###

- Test system: Streptococcus pneumoniae
- PROTOCOL NOTES: Antimicrobial activity against Streptococcus pneumoniae 9 expressing mefA after 20 hrs by agar dilution method
- Format: functional
METRIC: MIC (µg/mL)
Provide the reading as a plain figure in µg/mL.

COMPOUND	TESTED TARGET	MIC / µg/mL
CCOC(=O)[C@H]1[C@H](C)O[C@@H](O[C@H]2[C@H](N(C)C)[C@@H](O)[C@H](O[C@H]3[C@@H](CC=O)C[C@@H](C)[C@@H](O)CN(C)CCC(C/C=C/c4cnc5ccccc5c4)NC(=O)C[C@@H](OC(=O)CC)[C@@H]3OC)O[C@@H]2C)C[C@@]1(C)O (stereo in doubt; form 2)	Streptococcus pneumoniae	0.5

Entry CCOC(=O)[C@H]1[C@H](C)O[C@@H](O[C@H]2[C@H](N(C)C)[C@@H](O)[C@H](O[C@H]3[C@@H](CC=O)C[C@@H](C)[C@@H](O)CN(C)CC(/C=C/Cc4cnc5ccccc5c4)CCOC(=O)C[C@@H](OC(=O)CC)[C@@H]3OC)O[C@@H]2C)C[C@@]1(C)O (stereo in doubt; form 2) under Streptococcus pneumoniae had MIC of 0.06

Entry CCOC(=O)[C@H]1[C@H](C)O[C@@H](O[C@H]2[C@H](N(C)C)[C@@H](O)[C@H](O[C@H]3[C@@H](CC=O)C[C@@H](C)[C@@H](O)CN(C)CCC(C/C=C/c4ccnc5ccccc45)NC(=O)C[C@@H](OC(=O)CC)[C@@H]3OC)O[C@@H]2C)C[C@@]1(C)O (stereo in doubt) under Streptococcus pneumoniae had MIC of 0.5

Entry CCOC(=O)[C@H]1[C@H](C)O[C@@H](O[C@H]2[C@H](N(C)C)[C@@H](O)[C@H](O[C@H]3[C@@H](CC=O)C[C@@H](C)[C@@H](O)CN(C)CCC(CCCc4ccnc5ccccc45)NC(=O)C[C@@H](OC(=O)CC)[C@@H]3OC)O[C@@H]2C)C[C@@]1(C)O (stereo in doubt; form 2) under Streptococcus pneumoniae had MIC of 0.25

Entry CCOC(=O)[C@H]1[C@H](C)O[C@@H](O[C@H]2[C@H](N(C)C)[C@@H](O)[C@H](O[C@H]3[C@@H](CC=O)C[C@@H](C)[C@@H](O)CN(C)CC(/C=C/Cc4ccnc5ccccc45)CCOC(=O)C[C@@H](OC(=O)CC)[C@@H]3OC)O[C@@H]2C)C[C@@]1(C)O (stereo in doubt; form 2) under Streptococcus pneumoniae had MIC of 0.06

Entry CCOC(=O)[C@H]1[C@H](C)O[C@@H](O[C@H]2[C@H](N(C)C)[C@@H](O)[C@H](O[C@H]3[C@@H](CC=O)C[C@@H](C)[C@@H](O)CN(C)CCC(C/C=C/c4cnc5ccccc5c4)NC(=O)C[C@@H](OC(=O)CC)[C@@H]3OC)O[C@@H]2C)C[C@@]1(C)O (stereo in doubt; form 1) under Streptococcus pneumoniae had MIC of 0.13

Entry CCOC(=O)[C@H]1[C@H](C)O[C@@H](O[C@H]2[C@H](N(C)C)[C@@H](O)[C@H](O[C@H]3[C@@H](CC=O)C[C@@H](C)[C@@H](O)CN(C)CC(/C=C\Cc4ccnc5ccccc45)CCOC(=O)C[C@@H](OC(=O)CC)[C@@H]3OC)O[C@@H]2C)C[C@@]1(C)O (stereo in doubt; form 2) under Streptococcus pneumoniae had MIC of 1
